# METHOD: AUC (0 to infinity) in C57BL/6 mouse plasma at 10 mg/kg, po administered as single dose measured upto 24 hrs by UPLC analysis
# Assay type: ADME, organism-based
# Set-up: route oral, dose 10 mg/kg, time <=24
# CONDITION_DESCRIPTION: in vivo
MEASUREMENT_NAME: AUC (µg·h/mL)
State just the number; it will be interpreted in µg·h/mL.

q: # get_value(readout='AUC', item= O=c1ccc2c([nH]1)CCC(NCCCNc1c3c(nc4cc(Cl)ccc14)CCCC3)C2 (stereo unspecified) )
a: 0.279

====

# METHOD: Terminal half life in C57BL/6 mouse plasma at 10 mg/kg, po administered as single dose measured upto 24 hrs by UPLC analysis
# Type: ADME, organism-based
# CONDITION_DESCRIPTION: read-out: beta t1/2 (converted)
MEASUREMENT_NAME: half-life (h)
State just the number; it will be interpreted in h.

q: # get_value(readout='half-life', item= O=c1ccc2c([nH]1)CCC(NCCCNc1c3c(nc4cc(Cl)ccc14)CCCC3)C2 (stereo unspecified) )
a: 7.89

====

# METHOD: MRT (0 to infinity) in C57BL/6 mouse liver at 10 mg/kg, po administered as single dose by UPLC analysis
# Format: ADME, organism-based
MEASUREMENT_NAME: MRT inf (h)
State just the number; it will be interpreted in h.

q: # get_value(readout='MRT inf', item= O=c1ccc2c([nH]1)CCC(NCCCNc1c3c(nc4cc(Cl)ccc14)CCCC3)C2 (stereo unspecified) )
a: 8.39

====

# METHOD: Terminal half life in C57BL/6 mouse liver at 10 mg/kg, po administered as single dose by UPLC analysis
# Type: ADME, organism-based
# CONDITION_DESCRIPTION: read-out: beta t1/2 (converted)
MEASUREMENT_NAME: half-life (h)
State just the number; it will be interpreted in h.

q: # get_value(readout='half-life', item= O=c1ccc2c([nH]1)CCC(NCCCNc1c3c(nc4cc(Cl)ccc14)CCCC3)C2 (stereo unspecified) )
a: 7.16

====

# METHOD: Tmax in C57BL/6 mouse kidney at 10 mg/kg, po administered as single dose by UPLC analysis
# Format: ADME, organism-based
MEASUREMENT_NAME: Tmax (h)
State just the number; it will be interpreted in h.

q: # get_value(readout='Tmax', item= O=c1ccc2c([nH]1)CCC(NCCCNc1c3c(nc4cc(Cl)ccc14)CCCC3)C2 (stereo unspecified) )
a: 2.5

====

# METHOD: Cmax in C57BL/6 mouse plasma at 10 mg/kg, po administered as single dose measured at 2.25 hrs by UPLC analysis
# Type: ADME, organism-based
# Parameters: route oral, dose 10 mg/kg, time 2.25 hrs
MEASUREMENT_NAME: Cmax
# do not omit the unit; it follows the number

q: # get_value(readout='Cmax', item= O=c1ccc2c([nH]1)CCC(NCCCNc1c3c(nc4cc(Cl)ccc14)CCCC3)C2 (stereo unspecified) )
a: 0.0683 µg/mL

====

# METHOD: Tmax in C57BL/6 mouse brain at 10 mg/kg, po administered as single dose measured upto 24 hrs by UPLC analysis
# Type: ADME, organism-based
MEASUREMENT_NAME: Tmax (h)
State just the number; it will be interpreted in h.

q: # get_value(readout='Tmax', item= O=c1ccc2c([nH]1)CCC(NCCCNc1c3c(nc4cc(Cl)ccc14)CCCC3)C2 (stereo unspecified) )
a: 2.75
